- MEASUREMENT NOTES: Solubility of compound by turbidimetric assay
- Format: physicochemical
ASSAY ENDPOINT: solubility kinetic

solubility kinetic recorded for this compound, O=C(C#CCO)Nc1ccc2nccc(Oc3ccc(C(=O)Nc4ccccn4)cc3)c2c1 , is < 1 µM

====

- TARGET OR SYSTEM: Receptor tyrosine-protein kinase erbB-4 (Homo sapiens)
- Sequence (Q15303 whole entry, the tested form may be a part): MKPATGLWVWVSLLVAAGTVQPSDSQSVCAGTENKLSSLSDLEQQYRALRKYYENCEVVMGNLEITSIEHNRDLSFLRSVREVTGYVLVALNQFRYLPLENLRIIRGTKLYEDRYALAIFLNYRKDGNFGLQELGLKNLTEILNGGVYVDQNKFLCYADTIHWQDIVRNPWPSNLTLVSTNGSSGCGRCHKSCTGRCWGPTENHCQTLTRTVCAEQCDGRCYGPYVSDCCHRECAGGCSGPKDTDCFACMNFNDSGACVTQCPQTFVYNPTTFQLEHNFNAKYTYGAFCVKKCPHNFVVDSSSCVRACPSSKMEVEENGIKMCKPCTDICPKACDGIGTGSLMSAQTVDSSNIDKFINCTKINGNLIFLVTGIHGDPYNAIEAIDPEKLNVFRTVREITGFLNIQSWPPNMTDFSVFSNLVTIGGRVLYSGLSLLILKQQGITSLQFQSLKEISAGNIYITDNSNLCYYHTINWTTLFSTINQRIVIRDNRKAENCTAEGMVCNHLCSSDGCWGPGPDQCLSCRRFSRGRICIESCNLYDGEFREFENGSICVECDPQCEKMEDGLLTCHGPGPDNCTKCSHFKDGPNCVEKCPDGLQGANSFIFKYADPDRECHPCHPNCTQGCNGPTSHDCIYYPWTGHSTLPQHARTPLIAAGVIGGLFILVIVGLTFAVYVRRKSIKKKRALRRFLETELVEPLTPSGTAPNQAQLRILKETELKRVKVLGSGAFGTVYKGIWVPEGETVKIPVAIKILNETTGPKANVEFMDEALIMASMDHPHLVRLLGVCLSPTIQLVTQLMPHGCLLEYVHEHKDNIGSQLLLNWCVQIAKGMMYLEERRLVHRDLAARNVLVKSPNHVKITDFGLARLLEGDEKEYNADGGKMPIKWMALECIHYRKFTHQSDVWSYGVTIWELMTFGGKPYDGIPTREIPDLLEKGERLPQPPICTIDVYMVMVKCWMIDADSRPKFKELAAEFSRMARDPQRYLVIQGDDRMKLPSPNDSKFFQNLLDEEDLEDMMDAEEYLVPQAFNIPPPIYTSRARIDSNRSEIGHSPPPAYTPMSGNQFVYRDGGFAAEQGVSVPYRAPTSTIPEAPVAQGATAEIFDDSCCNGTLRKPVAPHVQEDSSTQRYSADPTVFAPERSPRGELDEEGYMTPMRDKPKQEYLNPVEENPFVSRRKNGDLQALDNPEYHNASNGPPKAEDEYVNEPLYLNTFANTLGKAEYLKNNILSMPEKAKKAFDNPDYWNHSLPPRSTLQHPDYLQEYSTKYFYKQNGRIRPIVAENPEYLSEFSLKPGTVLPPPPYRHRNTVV
- MEASUREMENT NOTES: Inhibition of recombinant human N-terminal GST-tagged ERBB4 catalytic domain (708 to 993 residues) expressed in baculovirus expression system using tyrosine-1 peptide as substrate preincubated for 1 hr in presence of ATP by Z'-LYTE assay
Consider the following compounds; for each one, report its IC50.
Use nM as the unit, but write only the number.

IC50 recorded for this compound, C=CC(=O)Nc1ccc2nccc(Oc3ccc(C(=O)Nc4cc(CC)ccn4)cc3)c2c1 , is 16

IC50 recorded for this compound, COc1cc2nccc(Oc3ccc(C(=O)Nc4ccccn4)cc3)c2cc1NC(=O)C#CCCN1CCOCC1 , is 901

IC50 recorded for this compound, CC#CC(=O)Nc1cc2c(Oc3ccc(C(=O)Nc4ccccn4)cc3)ccnc2cc1OCCN1CCOCC1 , is 37

Cited source for all entries: ChEMBL document CHEMBL4725253
